- subject-of-test: WIZ (Homo sapiens, UniProt O95785+Q96SW2)
- Construct: expressed in transfected cells
- Sequence (O95785 whole entry): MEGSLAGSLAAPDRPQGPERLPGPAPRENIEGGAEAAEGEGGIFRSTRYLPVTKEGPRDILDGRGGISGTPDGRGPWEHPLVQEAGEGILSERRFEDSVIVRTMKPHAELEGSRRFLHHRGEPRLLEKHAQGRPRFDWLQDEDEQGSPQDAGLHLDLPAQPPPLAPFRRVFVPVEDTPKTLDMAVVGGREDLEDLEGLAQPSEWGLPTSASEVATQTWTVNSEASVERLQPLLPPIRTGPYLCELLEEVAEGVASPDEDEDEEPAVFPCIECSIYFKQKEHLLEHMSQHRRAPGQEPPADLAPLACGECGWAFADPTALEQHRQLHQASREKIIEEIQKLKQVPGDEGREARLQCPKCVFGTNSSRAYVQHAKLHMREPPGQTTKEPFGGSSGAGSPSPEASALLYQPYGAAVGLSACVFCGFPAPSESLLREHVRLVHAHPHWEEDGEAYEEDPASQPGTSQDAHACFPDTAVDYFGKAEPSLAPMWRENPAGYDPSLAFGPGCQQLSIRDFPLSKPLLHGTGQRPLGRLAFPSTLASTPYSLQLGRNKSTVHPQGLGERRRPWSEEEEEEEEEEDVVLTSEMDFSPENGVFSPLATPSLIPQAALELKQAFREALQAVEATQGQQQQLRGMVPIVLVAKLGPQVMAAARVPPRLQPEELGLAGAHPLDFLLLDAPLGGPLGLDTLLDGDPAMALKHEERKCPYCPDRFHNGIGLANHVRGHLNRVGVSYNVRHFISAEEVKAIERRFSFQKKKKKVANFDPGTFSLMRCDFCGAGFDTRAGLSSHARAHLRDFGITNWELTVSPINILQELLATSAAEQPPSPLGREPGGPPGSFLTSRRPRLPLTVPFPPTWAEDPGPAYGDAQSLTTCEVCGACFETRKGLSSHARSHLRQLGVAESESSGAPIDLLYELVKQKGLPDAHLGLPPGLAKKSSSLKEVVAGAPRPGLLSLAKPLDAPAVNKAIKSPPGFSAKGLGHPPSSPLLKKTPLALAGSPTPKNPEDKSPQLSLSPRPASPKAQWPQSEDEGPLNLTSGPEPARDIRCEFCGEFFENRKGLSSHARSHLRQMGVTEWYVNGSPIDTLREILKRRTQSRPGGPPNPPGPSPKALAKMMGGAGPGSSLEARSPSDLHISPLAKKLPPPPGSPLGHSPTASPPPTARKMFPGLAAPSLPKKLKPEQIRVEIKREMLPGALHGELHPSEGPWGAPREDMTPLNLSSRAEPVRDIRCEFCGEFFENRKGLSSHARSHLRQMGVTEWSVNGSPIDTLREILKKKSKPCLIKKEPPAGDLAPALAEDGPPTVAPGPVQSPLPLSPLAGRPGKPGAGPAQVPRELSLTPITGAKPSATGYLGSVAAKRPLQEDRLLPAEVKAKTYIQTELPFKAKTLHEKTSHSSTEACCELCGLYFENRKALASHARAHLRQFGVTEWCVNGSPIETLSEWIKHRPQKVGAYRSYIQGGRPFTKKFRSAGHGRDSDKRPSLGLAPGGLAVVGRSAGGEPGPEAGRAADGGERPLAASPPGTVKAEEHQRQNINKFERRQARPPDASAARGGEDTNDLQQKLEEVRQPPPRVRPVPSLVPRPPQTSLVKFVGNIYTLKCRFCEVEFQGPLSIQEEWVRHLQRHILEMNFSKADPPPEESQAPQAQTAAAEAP
- Sequence (Q96SW2 whole entry): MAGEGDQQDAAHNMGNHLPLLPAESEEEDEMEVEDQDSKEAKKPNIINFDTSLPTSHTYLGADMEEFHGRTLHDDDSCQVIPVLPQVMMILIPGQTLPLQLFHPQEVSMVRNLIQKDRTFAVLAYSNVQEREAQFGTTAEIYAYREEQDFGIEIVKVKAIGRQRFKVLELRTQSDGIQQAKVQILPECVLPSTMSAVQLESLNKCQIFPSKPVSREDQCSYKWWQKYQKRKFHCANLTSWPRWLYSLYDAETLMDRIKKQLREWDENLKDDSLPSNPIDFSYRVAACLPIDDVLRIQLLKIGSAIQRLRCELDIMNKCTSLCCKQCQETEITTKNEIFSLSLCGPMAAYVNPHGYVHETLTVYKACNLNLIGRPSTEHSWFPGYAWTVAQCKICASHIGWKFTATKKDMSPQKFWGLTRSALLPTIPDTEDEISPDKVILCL
- Sequence (Q16531 whole entry partner): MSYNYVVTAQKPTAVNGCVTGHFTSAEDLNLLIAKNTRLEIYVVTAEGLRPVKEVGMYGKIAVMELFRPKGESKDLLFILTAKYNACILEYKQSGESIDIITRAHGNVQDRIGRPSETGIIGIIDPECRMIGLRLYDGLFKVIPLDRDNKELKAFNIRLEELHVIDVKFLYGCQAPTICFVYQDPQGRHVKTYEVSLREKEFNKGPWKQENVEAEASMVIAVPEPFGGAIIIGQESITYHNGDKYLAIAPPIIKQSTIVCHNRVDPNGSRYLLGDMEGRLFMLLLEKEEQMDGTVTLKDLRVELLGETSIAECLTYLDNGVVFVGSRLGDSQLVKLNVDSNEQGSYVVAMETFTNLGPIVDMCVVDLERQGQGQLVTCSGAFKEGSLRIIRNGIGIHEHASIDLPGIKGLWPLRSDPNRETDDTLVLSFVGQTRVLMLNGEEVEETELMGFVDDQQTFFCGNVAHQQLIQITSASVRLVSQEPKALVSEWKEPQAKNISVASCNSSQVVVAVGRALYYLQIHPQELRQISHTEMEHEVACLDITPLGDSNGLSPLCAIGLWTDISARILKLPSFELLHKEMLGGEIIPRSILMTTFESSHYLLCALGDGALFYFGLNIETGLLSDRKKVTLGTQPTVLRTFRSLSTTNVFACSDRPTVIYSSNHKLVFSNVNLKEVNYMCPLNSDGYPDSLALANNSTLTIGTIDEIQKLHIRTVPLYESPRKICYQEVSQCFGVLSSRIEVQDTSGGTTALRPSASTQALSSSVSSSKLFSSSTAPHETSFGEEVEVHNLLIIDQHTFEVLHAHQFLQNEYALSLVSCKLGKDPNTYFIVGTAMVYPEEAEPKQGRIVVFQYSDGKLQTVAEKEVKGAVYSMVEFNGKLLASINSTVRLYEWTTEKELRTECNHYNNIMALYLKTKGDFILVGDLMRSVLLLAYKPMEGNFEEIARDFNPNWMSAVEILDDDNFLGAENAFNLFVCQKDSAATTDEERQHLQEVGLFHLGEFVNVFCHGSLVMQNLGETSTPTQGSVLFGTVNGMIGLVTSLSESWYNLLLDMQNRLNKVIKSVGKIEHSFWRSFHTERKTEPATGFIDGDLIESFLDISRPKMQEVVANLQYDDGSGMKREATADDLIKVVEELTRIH
- test-summary: Quantification of WIZ protein levels in HiBit tag fusion protein assay (293T cells)
- Assay type: cell-based
- measurement-conditions: HEK-293T, read-out: WIZ Amax
remaining activity at 25 µM values by entry

molecule | remaining activity at 25 µM
CCN1C[C@H](O)C[C@@H](Oc2ccc3c(c2)CN(C2CCC(=O)NC2=O)C3=O)C1 (mixture of isomers) | 20%
CCN1CCCC[C@@H](Oc2ccc3c(c2)CN(C2CCC(=O)NC2=O)C3=O)C1 (stereo partly shown) | 32.5%
CCN1CC[C@H](C)[C@@H](Oc2ccc3c(c2)CN(C2CCC(=O)NC2=O)C3=O)C1 (mixture of isomers) | 68.1%
CCC[C@H]1CC[C@@H](Oc2ccc3c(c2)CN(C2CCC(=O)NC2=O)C3=O)CN1CC (stereo partly shown) | 10.3%
